# experimental.target: HiBiT tagged Wee1 (Homo sapiens)
# Sequence (P30291 whole entry): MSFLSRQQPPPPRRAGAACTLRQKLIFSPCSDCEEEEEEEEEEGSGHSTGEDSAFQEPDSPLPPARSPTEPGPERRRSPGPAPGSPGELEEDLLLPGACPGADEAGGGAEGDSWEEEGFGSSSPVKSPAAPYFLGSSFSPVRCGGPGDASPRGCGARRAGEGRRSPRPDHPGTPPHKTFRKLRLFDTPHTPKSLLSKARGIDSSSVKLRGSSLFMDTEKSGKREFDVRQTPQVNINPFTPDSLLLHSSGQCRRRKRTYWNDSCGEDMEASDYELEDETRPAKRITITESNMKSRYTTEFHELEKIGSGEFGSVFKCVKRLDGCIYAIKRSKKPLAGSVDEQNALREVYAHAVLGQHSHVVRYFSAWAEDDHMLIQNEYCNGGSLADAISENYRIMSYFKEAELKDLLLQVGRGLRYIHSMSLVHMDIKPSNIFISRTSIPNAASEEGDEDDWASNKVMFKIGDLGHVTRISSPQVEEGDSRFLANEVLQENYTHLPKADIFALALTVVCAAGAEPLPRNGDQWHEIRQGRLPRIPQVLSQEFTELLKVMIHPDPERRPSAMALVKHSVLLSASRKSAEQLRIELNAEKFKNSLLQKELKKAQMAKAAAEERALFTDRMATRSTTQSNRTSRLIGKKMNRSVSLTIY
# method.summary: Wee1 protein degradation assay (HiBiT assay)
# Format: cell-based
# condition.info: engineered HT-1080 cells, 20 hours; maximum percentage of Wee1 degradation; read-out: HiBiT Wee1: Dmax
Give Dmax for every item shown.

INSERT INTO measurements (compound, reported_value) VALUES
  ('C=CCn1c(=O)c2cnc(Nc3ccc(N4CCC(CN5CCN(c6ccc7c(C8CCC(=O)NC8=O)nn(C)c7c6)CC5)CC4)cc3)nc2n1-c1cccc(C(C)(C)O)n1 (centres unmarked)', '> 75%');

Could I get Dmax for every one of these entries?
1. C=CCn1c(=O)c2cnc(Nc3ccc(N4CCC(N5CCN(c6ccc(NC7CCC(=O)NC7=O)cc6F)CC5)CC4)cc3)nc2n1-c1cccc(C(C)(C)O)n1 (centres unmarked)
2. C=CCn1c(=O)c2cnc(Nc3ccc(N4CCC(CN5CCC(c6ccc(NC7CCC(=O)NC7=O)cc6)CC5)CC4)cc3)nc2n1-c1cccc(C(C)(C)O)n1 (centres unmarked)
3. C=CCn1c(=O)c2cnc(Nc3ccc(N4CCN(C5CC6(C5)CN(c5ccc(NC7CCC(=O)NC7=O)cc5F)C6)CC4)cc3)nc2n1-c1ccc2c(n1)[C@@](O)(CC)CC2 (some centres unmarked)
4. C=CCn1c(=O)c2cnc(Nc3ccc(N4CCN(CC5CCN(c6cccc7c(N8CCC(=O)NC8=O)nn(C)c67)CC5)CC4)cc3)nc2n1-c1ccc2c(n1)[C@@](O)(CC)CC2

["> 75%", "> 75%", "> 75%", "50 to 75%"]

Please give Dmax, item by item, for the list that follows.
1. C=CCn1c(=O)c2cnc(Nc3ccc(N4CCC(CN5CCC(c6cccc(NC7CCC(=O)NC7=O)c6)CC5)CC4)cc3)nc2n1-c1cccc(C(C)(C)O)n1 (centres unmarked)
2. C=CCn1c(=O)c2cnc(Nc3ccc(C4CCN(CC5CN(c6ccc7c(c6)C(=O)N(C6CCC(=O)NC6=O)C7=O)C5)CC4)cc3)nc2n1-c1cccc(C(C)(C)O)n1 (centres unmarked)
3. C=CCn1c(=O)c2cnc(Nc3ccc(N4CCN(CC5CCN(c6ccc7c(N8CCC(=O)NC8=O)nn(C)c7c6)CC5)CC4)cc3)nc2n1-c1ccc2c(n1)[C@@](O)(CC)CC2

1. 50 to 75%
2. 50 to 75%
3. > 75%

Please give Dmax for each item listed below.
1. C=CCn1c(=O)c2cnc(Nc3ccc(N4CCC(N5CCN(c6ccc7c(c6)C(=O)N(C6CCC(=O)NC6=O)C7=O)CC5)CC4)cc3)nc2n1-c1cccc(C(C)(C)O)n1 (centres unmarked)
2. C=CCn1c(=O)c2cnc(Nc3ccc(N4CCN(CC5CCN(c6ccc(NC7CCC(=O)NC7=O)cn6)CC5)CC4)cc3)nc2n1-c1ccc2c(n1)[C@@](O)(CC)CC2 (some centres unmarked)
3. C=CCn1c(=O)c2cnc(Nc3ccc4c(c3)CN(CC3CCN(c5ccc6c(c5)C(=O)N(C5CCC(=O)NC5=O)C6=O)CC3)CC4)nc2n1-c1cccc(C(C)(C)O)n1 (centres unmarked)

["50 to 75%", "> 75%", "< 50%"]
